These entries and their values trace back to BindingDB's records for doi:10.1021/ml1001807.

System Tested: Proto-oncogene tyrosine-protein kinase receptor Ret (Homo sapiens)
Sequence (P07949 whole entry): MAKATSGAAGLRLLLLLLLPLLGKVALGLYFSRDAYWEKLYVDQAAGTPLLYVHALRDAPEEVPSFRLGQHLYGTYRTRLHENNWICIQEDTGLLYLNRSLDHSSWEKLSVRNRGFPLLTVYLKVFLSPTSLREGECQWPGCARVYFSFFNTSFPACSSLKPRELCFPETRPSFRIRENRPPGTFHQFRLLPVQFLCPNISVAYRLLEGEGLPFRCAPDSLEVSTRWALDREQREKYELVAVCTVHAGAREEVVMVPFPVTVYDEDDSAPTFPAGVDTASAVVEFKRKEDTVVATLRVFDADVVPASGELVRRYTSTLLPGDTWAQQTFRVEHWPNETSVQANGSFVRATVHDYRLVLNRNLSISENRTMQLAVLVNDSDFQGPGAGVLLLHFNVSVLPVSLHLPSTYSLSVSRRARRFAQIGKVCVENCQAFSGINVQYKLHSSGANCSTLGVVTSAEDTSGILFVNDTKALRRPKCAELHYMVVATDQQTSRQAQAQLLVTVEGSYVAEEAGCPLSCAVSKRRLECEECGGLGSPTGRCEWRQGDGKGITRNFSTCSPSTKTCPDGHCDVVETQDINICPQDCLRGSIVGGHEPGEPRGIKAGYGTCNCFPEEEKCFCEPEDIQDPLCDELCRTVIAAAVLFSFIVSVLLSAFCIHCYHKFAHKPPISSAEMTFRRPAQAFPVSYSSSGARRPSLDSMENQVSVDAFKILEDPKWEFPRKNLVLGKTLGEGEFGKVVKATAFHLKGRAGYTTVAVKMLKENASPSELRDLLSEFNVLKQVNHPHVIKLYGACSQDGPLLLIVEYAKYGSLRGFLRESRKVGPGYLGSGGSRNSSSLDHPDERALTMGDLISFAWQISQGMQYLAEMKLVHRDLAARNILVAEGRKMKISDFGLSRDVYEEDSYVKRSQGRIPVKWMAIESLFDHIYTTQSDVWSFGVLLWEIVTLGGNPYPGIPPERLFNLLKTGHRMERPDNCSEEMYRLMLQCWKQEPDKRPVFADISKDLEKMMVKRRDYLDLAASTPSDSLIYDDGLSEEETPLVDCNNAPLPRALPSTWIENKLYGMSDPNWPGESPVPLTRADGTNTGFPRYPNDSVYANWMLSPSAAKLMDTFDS
Endpoint Label: IC50

Prompt: For the compound COc1cc(O)c2c(c1)CCCC(=O)C(=O)C(O)CCC[C@H](C)OC2=O (stereo partly drawn) [L-783277] , what IC50 is on record?
Response: > 10 µM

====

System Tested: Ephrin type-B receptor 4 (Homo sapiens)
Sequence (P54760 whole entry): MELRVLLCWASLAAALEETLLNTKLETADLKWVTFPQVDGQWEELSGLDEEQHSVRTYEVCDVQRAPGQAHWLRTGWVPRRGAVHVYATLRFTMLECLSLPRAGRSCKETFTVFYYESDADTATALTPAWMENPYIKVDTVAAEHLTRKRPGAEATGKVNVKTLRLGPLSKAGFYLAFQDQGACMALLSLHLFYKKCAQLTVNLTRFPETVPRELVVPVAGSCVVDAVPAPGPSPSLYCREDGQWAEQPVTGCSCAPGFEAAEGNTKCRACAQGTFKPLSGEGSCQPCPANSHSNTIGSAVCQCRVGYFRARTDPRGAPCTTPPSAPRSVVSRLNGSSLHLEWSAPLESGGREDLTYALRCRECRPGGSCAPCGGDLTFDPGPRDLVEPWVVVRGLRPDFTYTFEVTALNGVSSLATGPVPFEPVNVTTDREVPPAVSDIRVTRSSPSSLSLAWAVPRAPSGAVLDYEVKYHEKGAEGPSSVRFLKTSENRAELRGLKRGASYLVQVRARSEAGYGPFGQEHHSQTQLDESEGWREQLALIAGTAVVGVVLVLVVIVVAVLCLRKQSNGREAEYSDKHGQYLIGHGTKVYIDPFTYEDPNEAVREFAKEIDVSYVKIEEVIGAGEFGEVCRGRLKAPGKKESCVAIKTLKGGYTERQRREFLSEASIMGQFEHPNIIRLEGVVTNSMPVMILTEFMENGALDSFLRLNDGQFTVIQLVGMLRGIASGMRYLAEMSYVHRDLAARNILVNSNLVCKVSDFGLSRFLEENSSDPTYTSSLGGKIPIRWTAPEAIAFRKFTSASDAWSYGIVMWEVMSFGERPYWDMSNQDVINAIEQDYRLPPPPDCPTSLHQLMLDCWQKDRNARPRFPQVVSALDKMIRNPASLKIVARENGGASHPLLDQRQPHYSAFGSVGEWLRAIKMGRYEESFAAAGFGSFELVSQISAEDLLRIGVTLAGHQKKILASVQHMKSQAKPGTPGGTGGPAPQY
pIC50: −log10 of the molar value.
Endpoint Label: pIC50

Prompt: For the molecule COc1cc(O)c2c(c1)CCCC(=O)C(=O)C(O)CCC[C@H](C)OC2=O (stereo partly drawn) [L-783277] , what pIC50 is on record?
Response: < 5.00
